Target: T1, BMP-12 (UniProt Q7Z4P5 322-450, limits assumed)
T1 construct: also called BMP12/GDF7
T1 sequence (looked up): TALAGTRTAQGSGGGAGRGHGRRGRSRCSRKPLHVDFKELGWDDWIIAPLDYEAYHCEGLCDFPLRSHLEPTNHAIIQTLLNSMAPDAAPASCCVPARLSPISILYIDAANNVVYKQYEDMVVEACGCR
Test: peptide resin, filter plate; load 2: 50 mM Acetic Acid, 0.1 M NaCl, pH 4.0
No end group written: not given here.
QUANTITY_KIND: 4M Gnd, 50 mM NaAc pH 4 Strip Conc (mg/ml)
I only need the number, in mg/ml, no unit after it.

| BINDER | UNIT_STRING | 4M Gnd, 50 mM NaAc pH 4 Strip Conc |
| --- | --- | --- |
| Ac-LYVSDVGWNDWIVK (not fully specified (residue 3); printed as Ac-LYV**SDVGWNDWIVK; also: ** after V3 not explained) [BMP2 C-trunc_2 peptide 746] | mg/ml | 0.162 |

Asked: What value of measured 4M Gnd, 50 mM NaAc pH 4 Strip Conc is listed for Ac-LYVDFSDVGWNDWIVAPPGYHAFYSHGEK [BMP2 Full peptide 747] ?
Given back: 0.15

Asked: What about this binder? Ac-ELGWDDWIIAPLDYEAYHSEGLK [BMP12 N-trun_1S peptide 749]
Given back: 0.196
